# STUDY_TARGET: maltase
# METHOD: α-glucosidase
# TEST_PARAMETERS: read-out: Maltase IC50; isolated compounds
pIC50: −log10 of the molar value.
READOUT_LABEL: pIC50

P = O=C1c2c(O)cc(O)cc2O[C@H](c2cc(O)c(O)c(O)c2)[C@H]1O [Compound 5, ampelopsin]
Q = O=C(/C=C\c1ccc(O)cc1)O[C@@H]1Cc2c(O)cc(O)cc2O[C@@H]1c1ccc(O)c(O)c1 [Compound 1, (–)-epicatechin-3-O-(Z)-coumarate]
Task: Kindly compare P with Q and tell me which has the lower pIC50 figure. Response format: the label of the selected entry.
Result: P
(P: 3.70, Q: 4.30)

###

# STUDY_TARGET: porcine pancreatic lipase (Sus scrofa)
# Sequence (P00591 1-450): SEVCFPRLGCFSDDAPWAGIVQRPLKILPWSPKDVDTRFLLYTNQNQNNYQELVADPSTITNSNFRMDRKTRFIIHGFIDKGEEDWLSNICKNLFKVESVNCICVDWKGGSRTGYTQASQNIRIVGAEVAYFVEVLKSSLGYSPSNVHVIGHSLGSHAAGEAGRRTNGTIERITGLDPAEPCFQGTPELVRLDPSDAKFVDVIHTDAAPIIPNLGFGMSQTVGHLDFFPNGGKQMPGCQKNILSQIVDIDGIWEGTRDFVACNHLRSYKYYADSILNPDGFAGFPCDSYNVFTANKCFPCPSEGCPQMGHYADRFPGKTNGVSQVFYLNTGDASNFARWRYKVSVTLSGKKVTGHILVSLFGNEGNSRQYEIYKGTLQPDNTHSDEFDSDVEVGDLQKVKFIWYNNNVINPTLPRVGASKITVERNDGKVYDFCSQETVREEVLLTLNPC
# METHOD: lipase inhibitory activity
# Type: biochemical
# TEST_PARAMETERS: at the concentration of 10^—5 mol/L
READOUT_LABEL: Lipase Inhibition (%)

Study these solved cases before continuing.
>>> reading("O=C(/C=C/c1ccc(O)cc1)O[C@@H]1Cc2c(O)cc(O)cc2O[C@@H]1c1ccc(O)c(O)c1 [Compound 2, (–)-epicatechin-3-O-(E)-coumarate]")
41.6
>>> reading("O=C(/C=C/c1ccc(O)c(O)c1)O[C@@H]1Cc2c(O)cc(O)cc2O[C@@H]1c1ccc(O)c(O)c1 [Compound 3, (–)-epicatechin-3-O-(E)-caffeate]")
36.3

a = O=C(/C=C\c1ccc(O)cc1)O[C@@H]1Cc2c(O)cc(O)cc2O[C@@H]1c1ccc(O)c(O)c1 [Compound 1, (–)-epicatechin-3-O-(Z)-coumarate]
b = Oc1cc(O)c2c(c1)O[C@H](c1ccc(O)c(O)c1)[C@@H](O)C2 [Compound 4, (+)-catechin]
Task: Of a and b , whose reported Lipase Inhibition (%) is the larger number? Use the label to indicate which entry you chose.
Result: b

###

# System: maltase
# METHOD: α-glucosidase
# Assay type: biochemical, Rat
# TEST_PARAMETERS: at the concentration of 10^—5 mol/L
READOUT_LABEL: Maltase Inhibition (%)

>>> reading("O=C1c2c(O)cc(O)cc2O[C@H](c2cc(O)c(O)c(O)c2)[C@H]1O")
92.0

a = O=C(/C=C\c1ccc(O)cc1)O[C@@H]1Cc2c(O)cc(O)cc2O[C@@H]1c1ccc(O)c(O)c1 [Compound 1, (–)-epicatechin-3-O-(Z)-coumarate]
b = Oc1cc(O)c2c(c1)O[C@H](c1ccc(O)c(O)c1)[C@H](O)C2 [Compound 6, (–)-epicatechin]
c = Oc1cc(O)c2c(c1)O[C@H](c1ccc(O)c(O)c1)[C@@H](O)C2 [Compound 4, (+)-catechin]
Task: // ranking: key=Maltase Inhibition (%), reverse=True Respond with the label ranking, as requested.
Result: a, b, c
(a: 71.8%, b: 48.5%, c: 16.1%)

###

# STUDY_TARGET: porcine pancreatic lipase (Sus scrofa, UniProt P00591)
# METHOD: lipase inhibitory activity
# Type: biochemical
# TEST_PARAMETERS: read-out: Lipase IC50; isolated compounds
READOUT_LABEL: pIC50
pIC50 field: float, defined as -log10 of concentration (mol/L).

Task: Fill in the blank: the reported pIC50 of Oc1cc(O)c2c(c1)O[C@H](c1ccc(O)c(O)c1)[C@@H](O)C2 [Compound 4, (+)-catechin] is ____.
Result: 4.40
